Quick reference: Hemolysis (HC10), concentration of compound at 10% hemolytic activity of the listed items.
# Test system: human red blood cells
# protocolDescription: Hemolytic assay
# Format: cell-based
# experimentalContext: mean (n = 2)
Express it in µM; write the number only.

{"compound": "COc1c(Br)cc(/C=C/C(=O)NCCCNCCCCCCCCCCNCCCNC(=O)/C=C/c2cc(Br)c(OC)c(Br)c2)cc1Br.O=C(O)C(F)(F)F.O=C(O)C(F)(F)F [Compound 16e]", "measured": 13.6}

Now for another entry.
Quick one: Hemolysis (HC10), concentration of compound at 10% hemolytic activity of COc1ccc(/C=C/C(=O)NCCCNCCCCCCNCCCNC(=O)/C=C/c2ccc(OC)c(Br)c2)cc1Br.O=C(O)C(F)(F)F.O=C(O)C(F)(F)F [Compound 15b] ? 0.99

###

# protocolDescription: Cytotoxicity assay
# Assay type: cell-based, human
# experimentalContext: human, HEK293 human embryonic kidney cells, mean (n = 2), read-out: Cytotoxicity (IC50), concentration of compound at 50% cytotoxicity
pIC50: −log10 of the molar value.
property: pIC50

Examples with answers:
{"molecule": "COc1ccc(/C=C/C(=O)NCCCNCCCCCCNCCCNC(=O)/C=C/c2ccc(OC)c(Br)c2)cc1Br.O=C(O)C(F)(F)F.O=C(O)C(F)(F)F [Compound 15b]", "pIC50": "< 4.47"}
{"molecule": "O=C(C=Cc1ccccc1)NCCCNCCCCCCNCCCNC(=O)C=Cc1ccccc1.O=C(O)C(F)(F)F.O=C(O)C(F)(F)F [Compound 13b]", "pIC50": "< 4.35"}
{"molecule": "O=C(C=Cc1ccccc1)NCCCNCCCCCCCCNCCCNC(=O)C=Cc1ccccc1.O=C(O)C(F)(F)F.O=C(O)C(F)(F)F [Compound 13d]", "pIC50": "< 4.37"}
{"molecule": "COc1ccc(/C=C/C(=O)NCCCNCCCCCCCCCCNCCCNC(=O)/C=C/c2ccc(OC)c(Br)c2)cc1Br.O=C(O)C(F)(F)F.O=C(O)C(F)(F)F [Compound 15e]", "pIC50": "< 4.49"}
{"molecule": "COc1ccc(/C=C/C(=O)NCCCNCCCCCCNCCCNC(=O)/C=C/c2ccc(OC)cc2)cc1.O=C(O)C(F)(F)F.O=C(O)C(F)(F)F [Compound 14b]", "pIC50": "< 4.39"}

Quick one: pIC50 of COc1ccc(/C=C/C(=O)NCCCNCCCCCCCCNCCCNC(=O)/C=C/c2ccc(OC)cc2)cc1.O=C(O)C(F)(F)F.O=C(O)C(F)(F)F [Compound 14d] ? < 4.40

Quick one: pIC50 of COc1ccc(/C=C/C(=O)NCCCNCCCCNCCCNC(=O)/C=C/c2ccc(OC)cc2)cc1.O=C(O)C(F)(F)F.O=C(O)C(F)(F)F [Compound 14a] ? < 4.37

###

# Test system: P. aeruginosa ATCC 27853
# protocolDescription: Doxycycline enhancement against P. aeruginosa
# Assay type: cell-based, Pseudomonas aeruginosa
# experimentalContext: doxycycline fixed at 4.5 µM
# Method: Antibiotic enhancer concentrations were determined using previously reported protocols. We then evaluated the set of analogues for the ability to enhance the antibiotic activity of doxycycline against P. aeruginosa ATCC 27853 and of erythromycin against E. coli ATCC 25922 (Table 2). In the case of doxycycline, a fixed concentration of the antibiotic of 4.5 μM, which is twenty-fold lower than the intrinsic MIC 90 μM against this organism, was used. […]
Quick reference: Dox/P. a: fold change (intrinsic MIC of test compound / combination MIC) of the listed items.

Quick one: Dox/P. a: fold change (intrinsic MIC of test compound / combination MIC) of COc1c(Br)cc(/C=C/C(=O)NCCCNCCCCCCNCCCNC(=O)/C=C/c2cc(Br)c(OC)c(Br)c2)cc1Br.O=C(O)C(F)(F)F.O=C(O)C(F)(F)F [Compound 16b] ? > 16 fold
